Cited source for all entries: paper PMC7588595

molecular target: human AspH (His6-AspH315–758) (Homo sapiens); construct: N-Terminally His6-tagged human AspH315–758 (His6-AspH315–758) was produced in Escherichia coli BL21 (DE3) cells; made in house; host or cells: Escherichia coli BL21 (DE3), pET-28a(+) vector; assay: SPE-MS AspH inhibition assay (hFX-CP101-119 substrate hydroxylation); type: biochemical; settings: AspH-inhibitor screening, Plate 1-duplicate, substrate conversion
Sequence (Q12797 315-758): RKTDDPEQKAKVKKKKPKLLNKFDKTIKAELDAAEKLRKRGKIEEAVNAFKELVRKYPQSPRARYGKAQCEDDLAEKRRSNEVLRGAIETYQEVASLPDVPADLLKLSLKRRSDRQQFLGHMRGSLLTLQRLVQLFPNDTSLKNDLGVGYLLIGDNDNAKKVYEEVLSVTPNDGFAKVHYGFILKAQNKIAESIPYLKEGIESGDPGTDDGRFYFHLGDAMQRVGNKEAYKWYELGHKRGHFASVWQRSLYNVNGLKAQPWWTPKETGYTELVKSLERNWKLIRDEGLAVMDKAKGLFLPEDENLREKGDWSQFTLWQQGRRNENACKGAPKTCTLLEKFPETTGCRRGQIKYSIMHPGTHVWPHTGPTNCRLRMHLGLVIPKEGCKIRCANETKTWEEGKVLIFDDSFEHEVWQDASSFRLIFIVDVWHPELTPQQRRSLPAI
endpoint-name: Plate 1-duplicate (% conversion) (%)
Field: numeric (%). Do not append units.

The molecule identified as Clc1ccc(C(c2ccccc2Cl)C(Cl)Cl)cc1 (stereo not shown) [Mitotane] registered its Plate 1-duplicate (% conversion) at 43.18

Input C[C@]12CC[C@H](O)CC1=CC[C@@H]1[C@@H]2CC[C@]2(C)C(c3cccnc3)=CC[C@@H]12 [Abiraterone] . Output Plate 1-duplicate (% conversion): 51.35

// sample CCCC(CCC)C(=O)O [Valproic acid] , its Plate 1-duplicate (% conversion) was 49.20

What the record says about COC(=O)c1ccc2c(c1)NC(=O)/C2=C(\Nc1ccc(N(C)C(=O)CN2CCN(C)CC2)cc1)c1ccccc1 [BIBF 1120_Nintedanib] : Plate 1-duplicate (% conversion) is 53.24

The recorded Plate 1-duplicate (% conversion) for NC(=O)c1ccc(I)c([N+](=O)[O-])c1 [Iniparib (BSI-201, IND-71677)] is 49.56

Query COc1cccc2c1C(=O)c1c(O)c3c(c(O)c1C2=O)C[C@@](O)(C(=O)CO)C[C@@H]3O[C@H]1C[C@H](N)[C@H](O)[C@H](C)O1 [Doxorubicin] yields Plate 1-duplicate (% conversion) of 52.66

Input Cc1ccc(C(=O)Nc2ccc(CN3CCN(C)CC3)c(C(F)(F)F)c2)cc1C#Cc1cnc2cccnn12 [AP24534 (Ponatinib)] . Output Plate 1-duplicate (% conversion): 69.54

response.value for C[C@]1(c2nc3c(C(N)=O)cccc3[nH]2)CCCN1 [ABT-888 (Veliparib)] (field: Plate 1-duplicate (% conversion)) = 49.98

Reported Plate 1-duplicate (% conversion) for c1ccc2c(CCNc3ccc(Nc4ccncc4)cc3)c[nH]c2c1 [JNJ 26854165 (Serdemetan)] was 36.96

C[C@]12CC[C@@H]3c4ccc(O)cc4C[C@@H](CCCCCCCCC[S+]([O-])CCCC(F)(F)C(F)(F)F)[C@H]3[C@@H]1CC[C@@H]2O (stereo partly shown) [Fulvestrant] has a reported Plate 1-duplicate (% conversion) of 40.92

Entry N#Cc1ccc(C(c2ccc(C#N)cc2)n2cncn2)cc1 [Letrozole] ; Plate 1-duplicate (% conversion) = 50.22

get_value(item= N.N.[Cl][Pt][Cl] [Cisplatin aq] , readout=Plate 1-duplicate (% conversion)) returns 38.92

Consider O=C(NC[C@H](O)CO)c1ccncc1Nc1ccc(I)cc1F [AS703026_Pimasertib] . Its measured Plate 1-duplicate (% conversion) is 47.41

Reported Plate 1-duplicate (% conversion) ( COC(=O)C[C@](O)(CCCC(C)(C)O)C(=O)O[C@@H]1C(OC)=C[C@]23CCCN2CCc2cc4c(cc2[C@H]13)OCO4 [Homoharringtonine] ) = 49.35

According to the records, this molecule NS(=O)(=O)OC[C@@H]1C[C@@H](n2ccc3c(N[C@H]4CCc5ccccc54)ncnc32)C[C@@H]1O [MLN4924] displays Plate 1-duplicate (% conversion) of 52.27

// Plate 1-duplicate (% conversion) value for COc1cc2c(N3CCN(C(=O)Nc4ccc(OC(C)C)cc4)CC3)ncnc2cc1OCCCN1CCCCC1 [Tandutinib] : 56.28
